Tested on: U2OS_Bim cells
protocolDetails: Apoptosis inhibition assay (Bim-induced apoptosis, cell viability by ATP level)
Assay type: cell-based
protocolConditions: U2OS_Bim cells; means of duplicates; numbering of Tables 4a/4b; read-out: EC50
endpoint: EC50

CS(=O)(=O)c1nc(-c2ccc(=O)n(Cc3ccc(Cl)cc3)c2)cc(C(F)(F)F)n1 :: 1 to 1000 nM
CS(=O)(=O)c1nc(-c2cccc(O)c2)cc(C(F)(F)F)n1 :: < 100000 nM
C#CCn1cc(-c2cc(C(F)(F)F)nc(S(C)(=O)=O)n2)ccc1=O :: 1 to 1000 nM
COc1ccc(Cn2cc(-c3cc(C(F)(F)F)nc(S(=O)(=O)CCCC(=O)N4CCOCC4)n3)ccc2=O)cc1OC :: 1 to 1000 nM

// switching to the query compound
Which EC50 is reported with U2OS_Bim cells for this entry: COc1ccc(Cn2cc(-c3cc(C(F)F)nc(S(=O)(=O)CCC(OCc4ccccc4)c4ccccc4)n3)ccc2=O)cc1OC (centres unmarked) ?
1 to 1000 nM
